System: α-amylase enzyme (diastase)
Assay: Antidiabetic activity: α-amylase inhibitory activity using diastase, colorimetric method
Format: biochemical
Details: 75 μg/ml
Exercise: state measured % inhibition (α-amylase), 75 μg/ml for each of the compounds provided.
Give bare numbers, in %.

Worked examples, 3 compounds total:
C[C@H]1O[C@H](O[C@H]2[C@H](O)[C@@H](O)[C@@H](O[C@H]3[C@H](O)[C@@H](O)C(O)O[C@@H]3CO)O[C@@H]2CO)[C@H](O)[C@@H](O)[C@@H]1N[C@H]1C=C(CO)[C@@H](O)[C@H](O)[C@H]1O (stereo partly drawn) [Acarabose, Acarbose, reference compound]: 73.25
CCOc1cc(C=C2SC(=O)NC2=O)ccc1O [Compound 11]: 59.74
O=C1NC(=O)C(=Cc2ccccc2O)S1 [Compound 17]: 65.46

The following compounds each have a reported value; give each one's % inhibition (α-amylase), 75 μg/ml.
1. COc1cc(C=C2SC(=O)NC2=O)cc(OC)c1OC [Compound 10]
2. O=C1NC(=O)C(=Cc2ccccc2Cl)S1 [Compound 13]
3. O=C1NC(=O)C(=Cc2ccc(Br)cc2)S1 [Compound 9]
4. COc1ccc(C=C2SC(=O)NC2=O)cc1 [Compound 12]
5. CN(C)c1ccc(C=C2SC(=O)NC2=O)cc1 [Compound 6]
6. COc1ccc(C=C2SC(=O)NC2=O)cc1OC [Compound 19]

// result
1. 63.36
2. 56.76
3. 68.34
4. 62.27
5. 50.78
6. 58.34

###

System: α-amylase enzyme (diastase)
Test: Antidiabetic activity: α-amylase inhibitory activity using diastase, colorimetric method
Type: biochemical
Details: 100 μg/ml
Experimental Readout: % inhibition (α-amylase), 100 μg/ml (%)
Numbers only, in %.

O=C1NC(=O)C(=Cc2ccccc2[N+](=O)[O-])S1 [Compound 4]: 92.61
O=C1NC(=O)C(=Cc2ccc(Cl)cc2Cl)S1 [Compound 3]: 95.79
COc1ccccc1C=C1SC(=O)NC1=O [Compound 15]: 81.30
CN(C)c1ccc(C=C2SC(=O)NC2=O)cc1 [Compound 6]: 97.15

The following compounds each have a reported value; give each one's % inhibition (α-amylase), 100 μg/ml.
1. COc1cc(C=C2SC(=O)NC2=O)cc(OC)c1OC [Compound 10]
2. CCOc1cc(C=C2SC(=O)NC2=O)ccc1O [Compound 11]
3. O=Cc1ccc(C=C2SC(=O)NC2=O)cc1 [Compound 21]
4. O=C1NC(=O)C(=Cc2ccc(O)cc2)S1 [Compound 5]

// result
1. 98.14
2. 89.71
3. 74.76
4. 96.72

The following compounds each have a reported value; give each one's % inhibition (α-amylase), 100 μg/ml.
1. O=C1NC(=O)C(=Cc2ccccc2O)S1 [Compound 17]
2. O=C1NC(=O)C(=Cc2ccc(Br)cc2)S1 [Compound 9]
3. COc1ccc(C=C2SC(=O)NC2=O)cc1OC [Compound 19]
4. COc1ccc(C=C2SC(=O)NC2=O)cc1 [Compound 12]
5. COc1cc(C=C2SC(=O)NC2=O)ccc1O [Compound 18]
6. C[C@H]1O[C@H](O[C@H]2[C@H](O)[C@@H](O)[C@@H](O[C@H]3[C@H](O)[C@@H](O)C(O)O[C@@H]3CO)O[C@@H]2CO)[C@H](O)[C@@H](O)[C@@H]1N[C@H]1C=C(CO)[C@@H](O)[C@H](O)[C@H]1O (some centres unmarked) [Acarabose, Acarbose, reference compound]
7. COc1cccc(C=C2SC(=O)NC2=O)c1 [Compound 16]

// result
1. 93.17
2. 89.37
3. 90.86
4. 79.43
5. 95.98
6. 88.57
7. 85.23

###

Assay: Antioxidant activity: free radical scavenging method by DPPH assay
Conditions: 25 μg/ml, 30 min, 517 nm
Exercise: state measured % inhibition (DPPH), 25 μg/ml for each of the compounds provided.
One number for each entry, in %.

Worked examples, 3 compounds total:
CCN(CC)c1ccc(/C=C2/SC(=O)NC2=O)cc1 [Compound 8]: 26.93
COc1ccccc1C=C1SC(=O)NC1=O [Compound 15]: 33.51
O=C1NC(=O)C(=Cc2ccc(Br)cc2)S1 [Compound 9]: 36.83

Proceed to the following item.
Measured % inhibition (DPPH), 25 μg/ml, O=C1NC(=O)C(=Cc2ccccc2Cl)S1 [Compound 13] : 24.45

###

Tested on: α-amylase enzyme (diastase)
Experiment: Antidiabetic activity: α-amylase inhibitory activity using diastase, colorimetric method
Assay type: biochemical
Settings: 75 μg/ml
Experimental Readout: % inhibition (α-amylase), 75 μg/ml (%)
One number for each entry, in %.

Worked examples, 3 compounds total:
COc1cc(C=C2SC(=O)NC2=O)ccc1O: 65.11
O=C1NC(=O)C(=Cc2ccc([N+](=O)[O-])cc2)S1: 55.52
CCN(CC)c1ccc(/C=C2/SC(=O)NC2=O)cc1: 40.89

The following compounds each have a reported value; give each one's % inhibition (α-amylase), 75 μg/ml.
1. O=C1NC(=O)C(=Cc2ccccc2[N+](=O)[O-])S1
2. O=C1NC(=O)C(=C/C=C/c2ccccc2)S1
3. COc1cccc(C=C2SC(=O)NC2=O)c1
4. O=Cc1ccc(C=C2SC(=O)NC2=O)cc1

// result
63.93
68.34
57.27
70.56

The following compounds each have a reported value; give each one's % inhibition (α-amylase), 75 μg/ml.
1. O=C1NC(=O)C(=Cc2ccc(Cl)cc2Cl)S1
2. O=C1NC(=O)C(=Cc2cccc([N+](=O)[O-])c2)S1
3. O=C1NC(=O)C(=Cc2ccc(O)cc2)S1

// result
1. 60.83
2. 64.87
3. 49.24

Measured % inhibition (α-amylase), 75 μg/ml, COc1ccccc1C=C1SC(=O)NC1=O : 66.98

###

Tested on: α-amylase enzyme (diastase)
Assay: Antidiabetic activity: α-amylase inhibitory activity using diastase, colorimetric method
Assay type: biochemical
Conditions: 25 μg/ml
Exercise: state measured % inhibition (α-amylase), 25 μg/ml for each of the compounds provided.
Answers are plain numbers, in %.

The following compounds each have a reported value; give each one's % inhibition (α-amylase), 25 μg/ml.
1. O=Cc1ccc(C=C2SC(=O)NC2=O)cc1
2. C[C@H]1O[C@H](O[C@H]2[C@H](O)[C@@H](O)[C@@H](O[C@H]3[C@H](O)[C@@H](O)C(O)O[C@@H]3CO)O[C@@H]2CO)[C@H](O)[C@@H](O)[C@@H]1N[C@H]1C=C(CO)[C@@H](O)[C@H](O)[C@H]1O (stereo partly drawn) [Acarabose, Acarbose, reference compound]
3. O=C1NC(=O)C(=C/C=C/c2ccccc2)S1
4. O=C1NC(=O)C(=Cc2ccc(Br)cc2)S1
5. COc1ccc(C=C2SC(=O)NC2=O)cc1OC
6. COc1ccccc1C=C1SC(=O)NC1=O
7. COc1cccc(C=C2SC(=O)NC2=O)c1
8. O=C1NC(=O)C(=Cc2cccc([N+](=O)[O-])c2)S1

// result
[21.98, 37.35, 34.73, 24.73, 29.33, 32.59, 27.52, 24.72]

Measured % inhibition (α-amylase), 25 μg/ml, COc1cc(C=C2SC(=O)NC2=O)cc(OC)c1OC : 29.34

###

Target: α-amylase enzyme (diastase)
Assay: Antidiabetic activity: α-amylase inhibitory activity using diastase, colorimetric method
Assay type: biochemical
Details: calculated via graph of % inhibition
Experimental Readout: IC50 (antidiabetic activity, α-amylase)
Quote the value and follow it with the unit of measurement.

Worked examples, 2 compounds total:
CCN(CC)c1ccc(/C=C2/SC(=O)NC2=O)cc1: 56.89 µg/mL
CN(C)c1ccc(C=C2SC(=O)NC2=O)cc1: 37.35 µg/mL

The following compounds each have a reported value; give each one's IC50 (antidiabetic activity, α-amylase).
1. CCOc1cc(C=C2SC(=O)NC2=O)ccc1O
2. COc1cc(C=C2SC(=O)NC2=O)ccc1O
3. O=C1NC(=O)C(=C/C=C/c2ccccc2)S1
4. O=C1NC(=O)C(=Cc2ccc(Br)cc2)S1
5. COc1cc(C=C2SC(=O)NC2=O)cc(OC)c1OC
6. O=C1NC(=O)C(=Cc2ccccc2O)S1
7. COc1ccc(C=C2SC(=O)NC2=O)cc1

// result
1. 52.69 µg/mL
2. 56.39 µg/mL
3. 31.62 µg/mL
4. 41.67 µg/mL
5. 47.49 µg/mL
6. 48.48 µg/mL
7. 27.63 µg/mL

The following compounds each have a reported value; give each one's IC50 (antidiabetic activity, α-amylase).
1. O=C1NC(=O)C(=Cc2ccc([N+](=O)[O-])cc2)S1
2. COc1ccc(C=C2SC(=O)NC2=O)cc1OC

// result
["54.35 µg/mL", "40.01 µg/mL"]
